assay: Solubility in 0.1 HCl solution; assay type: physicochemical

{"Molecule": "Cl.O=C(c1cc(S(=O)(=O)Nc2ccccc2F)c(F)cc1Cl)N1CCN2CCC[C@@H]2C1", "solubility": "> 9.5 mM"}

###

assay: Stability in monkey liver microsomes assessed as compound remaining at 1 uM after 30 mins; type: ADME, Macaca mulatta; settings: rhesus monkey, read-out: Stability
Metric: remaining at 0.5 h, 1 µM (%)

{"Molecule": "Cl.O=C(c1cc(S(=O)(=O)Nc2ccccc2F)c(F)cc1Cl)N1CCN2CCC[C@@H]2C1", "Value": 88}

###

assay: Terminal phase volume of distribution in rat at 5 uM/kg, iv or 30 uM/kg, po; type: ADME, organism-based; conditions: in vivo, read-out: Vbeta
Listed below: Vd at 5 µmol/kg values for each entry.
Metric: Vd at 5 µmol/kg (L/kg)

{"Molecule": "Cl.O=C(c1cc(S(=O)(=O)Nc2ccccc2F)c(F)cc1Cl)N1CCN2CCC[C@@H]2C1", "Metric": "Vd at 5 µmol/kg", "Value": 2.7}
{"Molecule": "O=C(c1cccc(S(=O)(=O)Nc2ccccc2F)c1)N1CCN2CCC[C@@H]2C1", "Metric": "Vd at 5 µmol/kg", "Value": 0.65}
{"Molecule": "C[C@@H]1CN(C(=O)c2cccc(S(=O)(=O)Nc3ccc(F)cc3)c2)C[C@H](C)O1", "Metric": "Vd at 5 µmol/kg", "Value": 0.75}

###

test: Protein binding in rat; assay type: ADME, organism-based; details: plasma, read-out: PB (converted)

{"Molecule": "Cl.O=C(c1cc(S(=O)(=O)Nc2ccccc2F)c(F)cc1Cl)N1CCN2CCC[C@@H]2C1", "fraction unbound": 0.111}

###

test: Plasma clearance in rat at 5 uM/kg, iv or 30 uM/kg, po; format: ADME, organism-based
Listed below: clearance values for each entry.

{"Molecule": "O=C(c1cccc(S(=O)(=O)Nc2cccc(F)c2F)c1)N1CCN2CCC[C@H]2C1", "clearance / mL/min/kg": 38}
{"Molecule": "O=C(c1cccc(S(=O)(=O)Nc2ccc(C(F)(F)F)cc2)c1)N1CCN2CCC[C@@H]2C1", "clearance / mL/min/kg": 7.5}
{"Molecule": "O=C(c1cccc(S(=O)(=O)Nc2ccccc2F)c1)N1CCN2CCC[C@@H]2C1", "clearance / mL/min/kg": 29.8}
{"Molecule": "O=C(c1cccc(S(=O)(=O)Nc2cccc(F)c2F)c1)N1CCN2CCC[C@@H]2C1", "clearance / mL/min/kg": 20.2}
{"Molecule": "Cl.O=C(c1cc(S(=O)(=O)Nc2ccccc2F)c(F)cc1Cl)N1CCN2CCC[C@@H]2C1", "clearance / mL/min/kg": 9.17}
{"Molecule": "C[C@@H]1CN(C(=O)c2cccc(S(=O)(=O)Nc3ccc(F)cc3)c2)C[C@H](C)O1", "clearance / mL/min/kg": 27.7}
{"Molecule": "O=C(c1cccc(S(=O)(=O)Nc2ccc(C(F)(F)F)cc2)c1)N1CCN2CCC[C@H]2C1", "clearance / mL/min/kg": 13.5}
{"Molecule": "O=C(c1cccc(S(=O)(=O)Nc2c(F)cccc2F)c1)N1CCN2CCC[C@@H]2C1", "clearance / mL/min/kg": 15.3}
{"Molecule": "O=C(c1cccc(S(=O)(=O)Nc2ccccc2F)c1)N1CCN2CCC[C@H]2C1", "clearance / mL/min/kg": 56}
{"Molecule": "O=C(c1cccc(S(=O)(=O)Nc2ccccc2Cl)c1)N1CCN2CCC[C@@H]2C1", "clearance / mL/min/kg": 32.2}
{"Molecule": "O=C(c1cccc(S(=O)(=O)Nc2ccccc2C(F)(F)F)c1)N1CCN2CCC[C@@H]2C1", "clearance / mL/min/kg": 12.3}

###

assay: Stability in dog liver microsomes assessed as compound remaining at 1 uM after 30 mins; format: ADME, Canis lupus familiaris; details: read-out: Stability

{"Molecule": "Cl.O=C(c1cc(S(=O)(=O)Nc2ccccc2F)c(F)cc1Cl)N1CCN2CCC[C@@H]2C1", "remaining at 0.5 h, 1 µM / %": 100}

###

biological target: Voltage-dependent T-type calcium channel subunit alpha-1H (Homo sapiens, UniProt O95180); test: Inhibition of human recombinant Cav3.2 channel
Sequence (O95180 whole entry): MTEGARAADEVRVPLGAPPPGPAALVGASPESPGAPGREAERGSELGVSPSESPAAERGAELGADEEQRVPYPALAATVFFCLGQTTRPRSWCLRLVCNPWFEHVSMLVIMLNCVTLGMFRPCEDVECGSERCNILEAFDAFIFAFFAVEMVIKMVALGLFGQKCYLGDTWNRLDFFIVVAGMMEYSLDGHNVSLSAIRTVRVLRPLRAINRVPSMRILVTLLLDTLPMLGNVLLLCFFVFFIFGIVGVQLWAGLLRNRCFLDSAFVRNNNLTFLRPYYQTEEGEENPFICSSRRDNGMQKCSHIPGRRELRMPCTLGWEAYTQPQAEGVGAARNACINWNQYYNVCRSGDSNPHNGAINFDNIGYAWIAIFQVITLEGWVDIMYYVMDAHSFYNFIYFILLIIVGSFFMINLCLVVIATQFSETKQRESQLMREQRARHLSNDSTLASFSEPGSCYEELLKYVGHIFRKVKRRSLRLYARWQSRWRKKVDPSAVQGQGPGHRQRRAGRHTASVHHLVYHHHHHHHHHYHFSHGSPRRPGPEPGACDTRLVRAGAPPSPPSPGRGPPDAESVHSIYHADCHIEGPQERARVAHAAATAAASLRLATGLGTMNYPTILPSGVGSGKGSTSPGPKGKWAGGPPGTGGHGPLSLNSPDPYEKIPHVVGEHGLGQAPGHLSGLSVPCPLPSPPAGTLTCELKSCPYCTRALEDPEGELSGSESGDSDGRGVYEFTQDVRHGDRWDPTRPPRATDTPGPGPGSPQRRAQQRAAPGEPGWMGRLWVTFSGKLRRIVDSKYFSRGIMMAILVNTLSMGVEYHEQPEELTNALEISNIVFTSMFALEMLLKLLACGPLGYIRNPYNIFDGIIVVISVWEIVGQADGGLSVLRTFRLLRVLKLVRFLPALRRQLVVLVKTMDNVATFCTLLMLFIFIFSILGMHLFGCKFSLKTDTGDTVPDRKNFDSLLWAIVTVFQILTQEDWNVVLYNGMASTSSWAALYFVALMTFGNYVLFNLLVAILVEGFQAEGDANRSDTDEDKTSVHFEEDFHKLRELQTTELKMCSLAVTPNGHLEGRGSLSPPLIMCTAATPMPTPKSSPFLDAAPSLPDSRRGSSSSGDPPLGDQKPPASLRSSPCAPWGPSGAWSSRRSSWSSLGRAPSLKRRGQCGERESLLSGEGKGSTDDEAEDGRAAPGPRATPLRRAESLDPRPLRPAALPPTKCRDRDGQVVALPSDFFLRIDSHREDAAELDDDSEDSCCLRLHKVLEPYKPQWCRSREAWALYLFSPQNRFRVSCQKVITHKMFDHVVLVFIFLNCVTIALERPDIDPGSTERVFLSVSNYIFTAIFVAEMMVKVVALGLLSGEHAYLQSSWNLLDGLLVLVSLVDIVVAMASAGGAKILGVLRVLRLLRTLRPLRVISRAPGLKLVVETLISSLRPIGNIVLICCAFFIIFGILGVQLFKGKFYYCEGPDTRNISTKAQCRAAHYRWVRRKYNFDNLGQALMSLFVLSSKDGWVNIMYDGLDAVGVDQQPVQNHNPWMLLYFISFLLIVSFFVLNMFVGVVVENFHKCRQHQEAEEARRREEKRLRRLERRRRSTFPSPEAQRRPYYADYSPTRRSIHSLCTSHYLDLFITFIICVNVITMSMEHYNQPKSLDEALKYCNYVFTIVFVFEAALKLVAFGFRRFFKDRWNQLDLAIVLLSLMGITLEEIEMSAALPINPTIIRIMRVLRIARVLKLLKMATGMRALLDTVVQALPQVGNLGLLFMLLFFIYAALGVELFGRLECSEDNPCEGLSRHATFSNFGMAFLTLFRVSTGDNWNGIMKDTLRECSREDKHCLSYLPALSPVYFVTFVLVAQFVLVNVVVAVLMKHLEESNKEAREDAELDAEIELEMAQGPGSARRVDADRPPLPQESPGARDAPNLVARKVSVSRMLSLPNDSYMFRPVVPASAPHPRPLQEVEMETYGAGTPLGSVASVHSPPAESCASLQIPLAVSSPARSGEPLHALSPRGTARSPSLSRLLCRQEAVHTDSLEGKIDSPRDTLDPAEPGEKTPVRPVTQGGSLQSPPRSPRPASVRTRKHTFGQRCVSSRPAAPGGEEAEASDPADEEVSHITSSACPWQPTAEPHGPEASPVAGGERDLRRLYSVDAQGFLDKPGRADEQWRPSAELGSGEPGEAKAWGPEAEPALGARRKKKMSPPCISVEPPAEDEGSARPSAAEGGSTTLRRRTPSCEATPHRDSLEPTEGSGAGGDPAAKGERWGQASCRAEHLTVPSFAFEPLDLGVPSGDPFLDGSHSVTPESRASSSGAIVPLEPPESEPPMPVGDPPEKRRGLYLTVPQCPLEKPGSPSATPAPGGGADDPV
pIC50: −log10 of the molar value.
Listed below: pIC50 values for each entry.

{"Compound": "O=C(c1cc(S(=O)(=O)Nc2ccccc2F)c(Cl)cc1Cl)N1CCN2CCC[C@@H]2C1", "pIC50": 4.72}
{"Compound": "CC1CC(C)CN(C(=O)c2cccc(S(=O)(=O)N3c4ccccc4CC3C)c2)C1 (centres undefined)", "pIC50": 5.52}
{"Compound": "Cl.O=C(c1cc(S(=O)(=O)Nc2ccccc2F)c(F)cc1Cl)N1CCN2CCC[C@@H]2C1", "pIC50": 5.64}
{"Compound": "CC1Cc2ccccc2N1S(=O)(=O)c1cccc(C(=O)NCC2CCCCC2)c1 (centres undefined)", "pIC50": 5.30}

###

assay: Protein binding in human; assay type: ADME, organism-based; details: plasma, read-out: PB (converted)

{"Molecule": "Cl.O=C(c1cc(S(=O)(=O)Nc2ccccc2F)c(F)cc1Cl)N1CCN2CCC[C@@H]2C1", "fraction unbound": 0.148}

###

assay: Stability in rat liver microsomes assessed as compound remaining at 1 uM after 30 mins; assay type: ADME; settings: read-out: Stability

{"Compound": "CC1Cc2ccccc2N1S(=O)(=O)c1cccc(C(=O)NCC2CCCCC2)c1 (stereo unspecified)", "remaining at 0.5 h, 1 µM [%]": 0.1}
{"Compound": "CN(c1ccccc1F)S(=O)(=O)c1cc(C(=O)N2CCN3CCC[C@@H]3C2)c(Cl)cc1F", "remaining at 0.5 h, 1 µM [%]": 0.04}
{"Compound": "Cl.O=C(c1cc(S(=O)(=O)Nc2ccccc2F)c(F)cc1Cl)N1CCN2CCC[C@@H]2C1", "remaining at 0.5 h, 1 µM [%]": 81}
{"Compound": "C[C@@H]1CN(C(=O)c2cccc(S(=O)(=O)Nc3ccc(F)cc3)c2)C[C@H](C)O1", "remaining at 0.5 h, 1 µM [%]": 46}
{"Compound": "CC1CC(C)CN(C(=O)c2cccc(S(=O)(=O)N3c4ccccc4CC3C)c2)C1 (stereo unspecified)", "remaining at 0.5 h, 1 µM [%]": 0.3}
{"Compound": "O=C(c1cccc(S(=O)(=O)Nc2ccccc2F)c1)N1CCN2CCC[C@@H]2C1", "remaining at 0.5 h, 1 µM [%]": 68}
